TESTED SYSTEM: Adenosine receptor A1 (Rattus norvegicus, UniProt P25099)
ASSAY ENDPOINT: Ki (µM)

Below, each entry is followed by its recorded Ki result.
LINE NOTATION: CCCn1c(=O)c2nc(-c3ccc(OCC(=O)NCCNC(=O)CN(CC(=O)O)C(=O)CCC(=O)O)cc3)[nH]c2n(CCC)c1=O
TESTED SYSTEM: Adenosine receptor A1 (Rattus norvegicus, UniProt P25099)
REPORTED VALUE: 2.86

LINE NOTATION: CCCn1c(=O)c2[nH]c(-c3ccc(OCC(=O)NCCNC(=O)CNCC(=O)O)cc3)nc2n(CCC)c1=O
TESTED SYSTEM: Adenosine receptor A1 (Rattus norvegicus, UniProt P25099)
REPORTED VALUE: 0.036

(a) CCCCn1c(=O)c2c(nc(/C=C/C(=O)OC)n2C)n(CCCC)c1=O
(b) CCCCn1c(=O)c2[nH]c(CCCCC(=O)O)nc2n(CCCC)c1=O
(c) Cn1c(=O)c2c(nc(/C=C/c3cccc(NC(=O)CCC(=O)O)c3)n2C)n(C)c1=O
Rank order required: Ki, descending. Put the labels in the order asked and list them.
c, b, a
(c: 20.5 µM, b: 5.27 µM, a: 0.793 µM)

====

TESTED SYSTEM: Adenosine receptors; A1 & A3 (Rattus norvegicus) (UniProt P25099+P28647)
METHOD: Ratio of selectivity for A3 and A1 receptors at rat brain
ASSAY ENDPOINT: Ratio

LINE NOTATION: Cn1c(=O)c2nc(CCCC(=O)O)[nH]c2n(C)c1=S
TESTED SYSTEM: Adenosine receptors; A1 & A3 (Rattus norvegicus) (UniProt P25099+P28647)
ASSAY ENDPOINT: Ratio
REPORTED VALUE: 1.6
--
LINE NOTATION: CCCn1c(=O)c2nc(-c3ccc(C(=O)O)cc3)[nH]c2n(CCC)c1=O
TESTED SYSTEM: Adenosine receptors; A1 & A3 (Rattus norvegicus) (UniProt P25099+P28647)
ASSAY ENDPOINT: Ratio
REPORTED VALUE: 230

(1) CCCn1c(=O)c2nc(-c3ccc(OCC(=O)O)cc3)[nH]c2n(CCC)c1=S
(2) CCCn1c(=O)c2nc(-c3ccc(OCC(=O)O)cc3)[nH]c2n(Cc2ccc(N)c(I)c2)c1=O
In terms of reported Ratio, does 1 or 2 have the smaller number? When you have decided, please share the label of that item.
2
(2: 32, 1: 126)

====

TESTED SYSTEM: Adenosine receptor A3 (Rattus norvegicus, UniProt P28647)
Sequence (P28647 whole entry): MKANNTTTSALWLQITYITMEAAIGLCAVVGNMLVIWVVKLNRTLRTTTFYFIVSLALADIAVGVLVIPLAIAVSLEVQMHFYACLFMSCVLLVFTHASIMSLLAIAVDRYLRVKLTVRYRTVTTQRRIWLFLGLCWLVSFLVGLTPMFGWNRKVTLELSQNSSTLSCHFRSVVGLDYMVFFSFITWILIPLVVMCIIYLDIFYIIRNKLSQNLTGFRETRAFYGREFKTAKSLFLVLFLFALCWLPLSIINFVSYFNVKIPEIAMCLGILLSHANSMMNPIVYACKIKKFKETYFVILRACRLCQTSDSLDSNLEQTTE
ASSAY ENDPOINT: Ki (µM)

LINE NOTATION: CCCn1c(=O)c2[nH]c(-c3ccc(OCC(=O)NCCNC(=O)CNCC(=O)O)cc3)nc2n(CCC)c1=O
Ki [µM]: 98

(I) Cn1c(=O)c2c(nc(/C=C/c3cccc(NC(=O)CCCCC(=O)O)c3)n2C)n(C)c1=O
(II) CCCn1c(=O)c2[nH]c(-c3ccc(OCC(=O)O)cc3)nc2n(CCC)c1=S
(III) CCCn1c(=O)c2[nH]c(-c3ccc(S(=O)(=O)O)cc3)nc2n(CCC)c1=O
(IV) Cn1c(=O)c2c(nc(/C=C/C(=O)O)n2C)n(C)c1=O
Ascending by Ki, please. Put the labels in the requested order and list them out.
II, III, IV, I
(II: 6.77 µM, III: 90.1 µM, IV: 130 µM, I: 234 µM)

====

Target protein (sequence): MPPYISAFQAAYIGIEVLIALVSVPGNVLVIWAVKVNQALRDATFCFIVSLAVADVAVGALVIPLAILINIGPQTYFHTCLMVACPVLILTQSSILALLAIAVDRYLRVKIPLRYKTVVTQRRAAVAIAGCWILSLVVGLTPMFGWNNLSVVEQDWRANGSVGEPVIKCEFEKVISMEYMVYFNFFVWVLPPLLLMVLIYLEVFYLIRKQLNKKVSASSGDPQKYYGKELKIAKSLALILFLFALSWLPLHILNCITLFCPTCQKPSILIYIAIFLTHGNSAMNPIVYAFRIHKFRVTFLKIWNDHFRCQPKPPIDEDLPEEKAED
pKi: −log10 of the molar value.
ASSAY ENDPOINT: pKi

LINE NOTATION: Cn1c(=O)c2c(nc(/C=C/c3cccc(NC(=O)CCCCC(=O)O)c3)n2C)n(C)c1=O
ASSAY ENDPOINT: pKi
REPORTED VALUE: 5.19

(a) CCCCn1c(=O)c2nc(CCC(=O)O)[nH]c2n(CCCC)c1=O
(b) CCCn1c(=O)c2nc(-c3ccc(OCC(=O)NCC(=O)O)cc3)[nH]c2n(CCC)c1=O
Hi there, can you help? I need to know whether a or b has lower measured pKi. Indicate which entry you chose by stating its label.
a

====

TESTED SYSTEM: Adenosine receptors; A1 & A3 (Rattus norvegicus) (UniProt P25099+P28647)
METHOD: Ratio of selectivity for A3 and A1 receptors at rat brain
ASSAY ENDPOINT: Ratio

Worked examples follow.
LINE NOTATION: Cn1c(=O)c2c(nc(/C=C/c3cccc(NC(=O)CCCC(=O)O)c3)n2C)n(C)c1=O
Ratio: 13
//
LINE NOTATION: CCCn1c(=O)c2nc(-c3ccc(OCC(=O)O)cc3)[nH]c2n(CCC)c1=O
Ratio: 1300
//
LINE NOTATION: CCCCn1c(=O)c2nc[nH]c2n(CCCC)c1=O
Ratio: 290

(A) CCCn1c(=O)c2nc(-c3ccc(S(=O)(=O)O)cc3)[nH]c2n(CCC)c1=O
(B) CCCCn1c(=O)c2nc(CCCC(=O)O)[nH]c2n(CCCC)c1=O
(C) C=CCn1c(=O)c2nc(-c3ccc(OCC(=O)O)cc3)[nH]c2n(CC=C)c1=O
(D) CCCCn1c(=O)c2nc[nH]c2n(Cc2ccccc2)c1=O
(E) CCCn1c(=O)c2nc(-c3ccc(OCC(=O)NCCNC(=O)CN(CC(=O)O)C(=O)CCC(=O)O)cc3)[nH]c2n(CCC)c1=O
Please list these in order of increasing Ratio. Thank you! Ranked list of labels, please, in the requested order.
B, E, D, C, A

(a) CCCn1c(=O)c2nc(-c3ccc(OCC(=O)NCC(=O)O)cc3)[nH]c2n(CCC)c1=O
(b) CCCCn1c(=O)c2nc(CCC(=O)O)[nH]c2n(CCCC)c1=O
Just tell me: smaller Ratio value, a or b ? Write down the label of the entry you select.
b

(A) CCCCn1c(=O)c2nc(-c3ccc(OCC(=O)O)cc3)[nH]c2n(CCCC)c1=O
(B) CCCn1c(=O)c2nc(-c3ccc(OCC(=O)NCCNC(=O)CNCC(=O)O)cc3)[nH]c2n(CCC)c1=O
Which record would sort first by descending Ratio, A or B ? Which one? Tell me its label.
B
(B: 2700, A: 640)

(A) CCCn1c(=O)c2nc(-c3ccc(OCC(=O)NCCNC(=O)CN(CC(=O)O)C(=O)OCC4c5ccccc5-c5ccccc54)cc3)[nH]c2n(CCC)c1=O
(B) Cn1c(=O)c2c(nc(/C=C/c3cccc(NC(=O)CCCCC(=O)O)c3)n2C)n(C)c1=O
Between the entries labeled A and B , whose measured Ratio is lower? Please reply using the label of the selected record.
B
(B: 36, A: 1100)

(I) Cn1c(=O)c2c(nc(/C=C/c3cccc(NC(=O)CCC(=O)O)c3)n2C)n(C)c1=O
(II) CCCCn1c(=O)c2c(nc(/C=C/C(=O)O)n2C)n(CCCC)c1=O
Between these two entries, I and II , state which has the higher Ratio. # answer = label of selected item
II

(1) CCCn1c(=O)c2nc(-c3ccc(OCC(=O)NCCNC(=O)CCC(=O)O)cc3)[nH]c2n(CCC)c1=O
(2) CCCCn1c(=O)c2nc(/C=C/C(=O)O)[nH]c2n(CCCC)c1=O
From the items above, decide which of 1 and 2 has the lower Ratio reading. # answer = label of selected item
2

====

TESTED SYSTEM: Adenosine receptors; A1 & A3 (Rattus norvegicus) (UniProt P25099+P28647)
METHOD: Ratio of selectivity for A3 and A1 receptors at rat brain
ASSAY ENDPOINT: Ratio

Completed entries (count: 2):
LINE NOTATION: CCCCCCn1c(=O)c2nc[nH]c2n(CCCCCC)c1=O
TESTED SYSTEM: Adenosine receptors; A1 & A3 (Rattus norvegicus) (UniProt P25099+P28647)
ASSAY ENDPOINT: Ratio
REPORTED VALUE: > 10
--
LINE NOTATION: Cn1c(=O)c2c(nc(/C=C/C(=O)O)n2C)n(C)c1=O
TESTED SYSTEM: Adenosine receptors; A1 & A3 (Rattus norvegicus) (UniProt P25099+P28647)
ASSAY ENDPOINT: Ratio
REPORTED VALUE: < 1

# input compound: "Cn1c(=O)c2nc(CCCC(=O)O)[nH]c2n(C)c1=O" ; wanted: its Ratio
< 1

Quick one: Ratio for "Cn1c(=O)c2c(ncn2Cc2ccccc2)n(C)c1=O" ?
> 10

Please look up its Ratio: "O=c1c2[nH]cnc2n(Cc2ccccc2)c(=O)n1Cc1ccccc1"
> 10
